These data points were gathered from PubChem BioAssay (NCI).

Tested on: OVCAR-4 ovarian
Method Summary: NCI-60 one-dose screen, 48 h (100 = growth as untreated, 0 = no growth, -100 = all killed)
Details: 10 µM unless noted
The panel holds about 83,000 compounds, 20% with a hit somewhere; the sample as a whole holds those more often.
Please provide measured growth for the entries that follow.
Answers are plain numbers, in %.

Use these answered entries as a reference point.
Specify growth for C[C@]12C[C@H](O)[C@H]3[C@@H](CCC4=CC(=O)CC[C@@]43C)[C@@H]1CC[C@@H]2C(=O)CO and stop.
97.7

Fill in reported growth for this entry: O=C1OC(c2ccc(-c3ccccc3)cc2)=C/C1=C/c1cccs1
65.5

Give me measured growth, please, for this compound: Cn1cc(-c2nc(-c3c[nH]c4ncc(F)cc34)cs2)c2cccnc21
82.2

Tell us which growth value is on record for COc1cc2c(C#N)n3c(c2cc1OC)C(=O)C(c1ccccc1)Oc1ccccc1-3 (stereo not given)
16

Batch request: growth per item, same order as input.
1. S=C1SCN(Cc2ccccc2)CN1Cc1ccco1
2. O=c1ccn(C2OC(CO)C(O)C2F)c(=O)[nH]1 (stereo not given)
3. O=C(O)c1ccc(NC(=O)c2ccc(Nc3ccnc(C(F)(F)F)c3)cc2)cc1
4. CCC(C)CC(CC)NCCN1CCN(C(CC)CC(C)CC)C1=S (stereo not given)
5. Cn1[nH]cc(/C=N/C(N)=O)c1=O
6. COc1ccc(OC)c(NC(=O)c2cc3oc4ccccc4c3cc2O)c1
7. CCOC(=O)c1cc(-c2cccnc2)nc2c(Cl)cc(Cl)cc12

99.9
110
103
37.8
106
91.4
89.9

For each listed entry, give its growth.
1. OCc1nnn(-c2ccccc2)c1CO
2. CCCOc1ccc2c(c1)CC[C@@H]1[C@@H]2CC[C@@]2(C)[C@H]1CC[C@]2(C)O

99.2
81

Quick batch: growth for everything below.
1. Nc1nc(SCc2ccccc2Cl)c(-c2ccccc2)c(SCc2ccccc2Cl)n1
2. COc1ccc2[nH]c(-c3ccccc3)cc2c1
3. Oc1ccc(-c2nn(-c3ccccc3)cc2-c2nc3ccccc3s2)cc1
4. Nc1nc(SCC2(CCl)COC2)c2[nH]cnc2n1

95.8
81.3
86.2
86.8

----------
System: A549/ATCC NSCLC
Method Summary: NCI-60 one-dose screen, 48 h
Details: 10 µM unless noted
This is part of a sample that, as a whole, favours compounds with a hit. Of some 83,000 tested, about 20% had one in any assay. Active and inactive are the calls of the source. The calls were made as follows: active = growth percent below 10; inactive = the rest.
Please reply with one of these outcomes: active, inactive

Given N=c1ccn2c(n1)O[C@@H]1[C@@H](O)[C@H](CO)O[C@@H]12 , state the outcome it received in this test.
inactive

What call does the record list for Cc1cc(O)c2c(c1)C[C@H]1[C@@H]3CC[C@H]4CC(=O)CC[C@]4(C)[C@H]3CC(=O)[C@]21C ?
inactive

// param item: Cc1nn(-c2ccccc2)c2ncc3c(c12)C(=O)N(Cc1ccccc1)C3=O ; yields the recorded call
inactive

What is the recorded call for this molecule in the test? CCOC(=O)c1c2c(c(C)n1Cc1ccc(OC)cc1)-c1nc(N)ncc1CC2
inactive

For COc1cccc2c1C(=O)c1c(O)c3c(c(O)c1C2=O)C[C@@](O)(/C(C)=N/NC(=O)c1cccc([N+](=O)[O-])c1)C[C@@H]3OC1CC(N)C(O)C(C)O1 (stereo partly drawn) , what call appears in the results of this test?
active

Could you kindly confirm the outcome this assay logged for Nc1ccc2c3c(cccc13)-c1ccccc1-2 ?
inactive

Continuing:
What outcome does the record of this test show for COc1ccc(/C=C2\NC(=S)NC2=O)cc1 ?
inactive

Assay outcome for CCCCn1c(Cc2ccc(Cl)cc2)nc2cc(OC)c(OC)cc2c1=O : what was it?
inactive
